target-of-assay: UniProt Q9Y5X9
Sequence (Q9Y5X9 21-500): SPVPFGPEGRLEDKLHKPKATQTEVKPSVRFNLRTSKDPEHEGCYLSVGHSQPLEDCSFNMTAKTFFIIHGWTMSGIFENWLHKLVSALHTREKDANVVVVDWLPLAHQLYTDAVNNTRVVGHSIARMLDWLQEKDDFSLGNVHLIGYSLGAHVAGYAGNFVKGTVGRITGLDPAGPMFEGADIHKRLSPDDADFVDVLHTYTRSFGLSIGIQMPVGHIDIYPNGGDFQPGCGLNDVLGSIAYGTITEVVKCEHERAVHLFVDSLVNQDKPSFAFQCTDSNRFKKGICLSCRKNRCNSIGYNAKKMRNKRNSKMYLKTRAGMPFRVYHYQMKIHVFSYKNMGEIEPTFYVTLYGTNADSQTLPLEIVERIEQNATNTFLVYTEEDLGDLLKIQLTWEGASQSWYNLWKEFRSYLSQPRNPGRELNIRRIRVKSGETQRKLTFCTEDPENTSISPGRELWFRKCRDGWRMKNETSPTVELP
assay-notes: EL assay: endothelial lipase activity with fluorescent substrate A10070 in DMPG vesicles
Type: biochemical
run-conditions: EL from conditioned media of HT-1080 cells; 30 min incubation with compound at 37° C.; A10070/DMPG vesicles
pIC50: −log10 of the molar value.
endpoint-name: pIC50

Solved entries:
[[record]]
compound = "CS(=O)(=O)C(C(=O)NCCS(N)(=O)=O)c1nc2ccc(-c3ccc(F)nc3)cc2s1 (stereo not shown) [Example B3]"
target_of_assay = "UniProt Q9Y5X9"
result = "> 8.00"

[[record]]
compound = "CS(=O)(=O)C(C(=O)NCCS(N)(=O)=O)c1nc2ccc(-c3ccc(N4CCOCC4)cc3)cc2s1 (stereo not shown) [Example B20]"
target_of_assay = "UniProt Q9Y5X9"
result = "> 8.00"

[[record]]
compound = "NS(=O)(=O)CCNC(=O)C(c1nc2c(F)cc(-c3ccccc3)cc2s1)S(=O)(=O)CCC(F)(F)F (stereo not shown) [Example B26]"
target_of_assay = "UniProt Q9Y5X9"
result = "> 8.00"


Let us examine a further case.
Input line: Tell me pIC50 reported for CC(=O)NC(C(=O)NCc1nnc(C)o1)c1nc2ccc(-c3ccc(F)cc3)cc2s1 (stereo not shown) [Example A8]
Output line: > 8.00
